tested on: OVCAR-4 ovarian; assay: NCI tumour cell line growth inhibition, 48 h
# Lookup of reported TGI keyed by entry
reported property: TGI (µM)

compound=CCCCc1c(O)nc(Nc2nc3ccccc3[nH]2)[nH]c1=O measured_target="OVCAR-4 ovarian" unit_text=µM comparison_sign=> endpoint_value=100
compound="Cc1cccc(N2C(=O)C3ON(C(C(N)=O)c4ccccc4)C(c4c5ccccc5c(Cl)c5ccccc45)C3C2=O)c1C (stereo not given)" measured_target="OVCAR-4 ovarian" unit_text=µM comparison_sign== endpoint_value=25.3
compound=CN=C(N)N/N=C(\c1ccccc1)c1ccc(Br)cc1 measured_target="OVCAR-4 ovarian" unit_text=µM comparison_sign== endpoint_value=15.2
compound=COc1cc(/C=C\[N+](=O)[O-])ccc1O measured_target="OVCAR-4 ovarian" unit_text=µM comparison_sign== endpoint_value=14.1
compound=COc1ccc(-c2cc(-c3cc(Cl)ccc3Cl)nc3[nH]c(-c4cc(F)c(Cl)cc4Cl)cc(=O)c23)cc1 measured_target="OVCAR-4 ovarian" unit_text=µM comparison_sign=> endpoint_value=100
compound=N#Cc1c(N)[nH]c(=S)c(C#N)c1-c1cccc(Cl)c1 measured_target="OVCAR-4 ovarian" unit_text=µM comparison_sign=> endpoint_value=100
compound=N#CCCN(c1ccc(C=Nc2cccc([N+](=O)[O-])c2)cc1)S(=O)(=O)c1ccccc1 measured_target="OVCAR-4 ovarian" unit_text=µM comparison_sign=> endpoint_value=100
compound="CCC(=O)C(c1ccccc1)c1ccccn1 (stereo not given)" measured_target="OVCAR-4 ovarian" unit_text=µM comparison_sign=> endpoint_value=100
compound="CC(=O)OCC1OC(N2C(=O)/C(=C\\c3ccc(Cl)cc3)C(N)=Nc3ccccc32)C(OC(C)=O)C(OC(C)=O)C1OC(C)=O (stereo not given)" measured_target="OVCAR-4 ovarian" unit_text=µM comparison_sign== endpoint_value=66.4
compound=O=C(C#Cc1c[nH]c(=O)[nH]c1=O)c1ccccc1Cl measured_target="OVCAR-4 ovarian" unit_text=µM comparison_sign== endpoint_value=31.1

* * *

test system: HS 578T breast; assay: NCI tumour cell line growth inhibition, 48 h
# Lookup of reported TGI keyed by entry
reported property: TGI

compound="CC1(C)CC2(C)CC1CC2O (centres undefined)" endpoint_value="> 100 µM"
compound=Cc1c(Cl)ccc2c(=O)c3cccc(CC(=O)O)c3oc12 endpoint_value="> 100 µM"
compound=CCc1c2c(nc3cc4c(cc13)OCO4)-c1cc3c(c(=O)n1C2)COC(=O)[C@]3(O)CC endpoint_value="> 100 µM"
compound="O=C1CC(O)c2c1csc2Br (centres undefined)" endpoint_value="72.4 µM"
compound="C[C@]12OC[C@H](c3ccccc3)N1C(=O)C1[C@H]2CC12SCCS2 (some centres undefined)" endpoint_value="> 100 µM"
compound=O=C(Nc1nc2ccccc2s1)OCC(F)(F)F endpoint_value="> 100 µM"
compound="Nc1nc2ncc(SCc3ccc(C(=O)NC(CCC(=O)O)C(=O)O)cc3)cc2c(=O)[nH]1 (centres undefined)" endpoint_value="> 100 µM"
compound="CC(=O)NC1C(OCc2ccccc2)OC(CO)C(O)C1OCC(=O)N[C@@H](C)C(=O)N[C@H](CCC(=O)NCCNCCNc1c2ccccc2nc2cccc([N+](=O)[O-])c12)C(N)=O (some centres undefined)" endpoint_value="> 100 µM"
compound=C=CC(=O)c1ccc2c(c1)OCCOCCOCCOCCOCCO2 endpoint_value="> 100 µM"
compound=Cc1ccc(-c2cc(N)n(-c3nc4c([nH]3)c(=O)n(C)c(=O)n4C)n2)cc1 endpoint_value="> 100 µM"
compound=COc1ccc(-c2cc(-c3cc(Cl)ccc3Cl)nc3[nH]c(-c4cc(F)c(Cl)cc4Cl)cc(=O)c23)cc1 endpoint_value="50.4 µM"
compound="CCOC(=O)CCC(NC(=O)c1ccc(OCc2nc3cc(C(F)(F)F)ccc3nc2-c2ccccc2)cc1)C(=O)OCC (centres undefined)" endpoint_value="> 100 µM"
compound="CC(=O)C(CN1CCCCC1)C(c1ccccc1)c1c(O)c2ccccc2oc1=O (centres undefined)" endpoint_value="> 100 µM"
compound="CC12CC(c3ccccc3O1)C(C(=O)Nc1ccc(F)cc1)C(=O)N2 (centres undefined)" endpoint_value="> 100 µM"
compound=C[C@@H]1CC[C@H]2C(COCC3=C(C(F)(F)F)O[C@@H]4O[C@@]5(C)CC[C@H]6[C@H](C)CC[C@@H]3[C@@]46OO5)=C(C(F)(F)F)O[C@@H]3O[C@@]4(C)CC[C@@H]1[C@]32OO4 endpoint_value="> 100 µM"
compound=COc1ccc(Nc2c(C#N)c3n(c4ccccc24)c2ccccc2[n+]3C)cc1OC endpoint_value="11.3 µM"
compound=COc1cccc(/C=C/C(=O)c2cc3c(N)c(C(=O)Nc4ccccc4C)sc3nc2C)c1 endpoint_value="> 50 µM"
compound=CSc1nc(SC)c2c(CN=[N+]=[N-])c(Br)n(Cc3ccccc3)c2n1 endpoint_value="> 100 µM"
compound=C#Cc1ccc(-n2c(/C=C/c3ccc(Cl)c(F)c3)nc3ncccc3c2=O)cc1 endpoint_value="> 100 µM"
